Experiment: Michaelis-Menten kinetics of vonoprazan in rat liver microsomes
Format: in vitro ADME
Details: pH 7.4, vonoprazan as substrate
value kind: Km at 30 min (µM)
The answer is to be given in µM; state only the numeric part.

Query: Any idea what Km at 30 min was measured for CNCc1cc(-c2ccccc2F)n(S(=O)(=O)c2cccnc2)c1 ?
Reply: 14.3

====

Assay: Pharmacokinetics of vonoprazan and metabolite M-I in rats with and without poziotinib pretreatment
Format: in vivo, Sprague-Dawley (SD) rats
Conditions: male, Sprague-Dawley, rat, serum, po, 10 mg/kg, vonoprazan, oral 10 mg/kg, poziotinib group (5 mg/kg oral pretreatment)
value kind: Tmax (h)
Dear colleague, please return just the value in h, with no unit written.

Query: GET /values?readout=Tmax&item= CNCc1cc(-c2ccccc2F)n(S(=O)(=O)c2cccnc2)c1 [vonoprazan]
Reply: 1.92

====

Assay: Pharmacokinetics of vonoprazan and metabolite M-I in rats with and without poziotinib pretreatment
Format: in vivo, Sprague-Dawley (SD) rats
Details: male, Sprague-Dawley, rat, serum, po, 10 mg/kg, vonoprazan, oral 10 mg/kg, poziotinib group (5 mg/kg oral pretreatment)
value kind: Cmax (ng/mL)
Report only the number, with the unit ng/mL understood.

Query: For the compound shown here, CNCc1cc(-c2ccccc2F)n(S(=O)(=O)c2cccnc2)c1 [vonoprazan] , give the reported Cmax.
Reply: 15.4

====

System: metabolism of vonoprazan in rat liver microsomes
Experiment: Inhibition of vonoprazan metabolism by poziotinib in rat liver microsomes
Assay type: in vitro ADME
Settings: pH 7.4, probe vonoprazan 10 μM (metabolite M-I measured), 10 μM vonoprazan, NADPH 1 mM, 37 °C 30 min
Procedure: Rat liver microsomes (RLMs) were prepared according to the previously reported differential centrifugation method (Eriksson [1978]; Wang et al. [2018]), and the concentration of total protein in the RLM was determined to be 28 mg/mL by the BCA protein quantitative method. […] Vonoprazan and its metabolite M-I were detected by UPLC-MS/MS according to the previously reported method (Shen et al. [2020]). […]
value kind: IC50 at 30 min (µM)
Return type: number; implicit unit µM.

Query: # IC50 at 30 min lookup, item C=CC(=O)N1CCC(Oc2cc3c(Nc4ccc(Cl)c(Cl)c4F)ncnc3cc2OC)CC1
Reply: 10.6

====

Assay: Pharmacokinetics of vonoprazan and metabolite M-I in rats with and without poziotinib pretreatment
Type: in vivo, Sprague-Dawley (SD) rats
Settings: male, Sprague-Dawley, rat, serum, po, 10 mg/kg, vonoprazan, oral 10 mg/kg, control group (no poziotinib), read-out: Vz/F
value kind: Vd/F (L/kg)
Respond numerically; units are L/kg and should not be typed.

Query: Quick check: Vd/F of CNCc1cc(-c2ccccc2F)n(S(=O)(=O)c2cccnc2)c1 ?
Reply: 298
